Data credit: the RNAGym collection of RNA variant scans (doi:10.7554/elife.90254)

B1: LINE1-full (parent)
chain: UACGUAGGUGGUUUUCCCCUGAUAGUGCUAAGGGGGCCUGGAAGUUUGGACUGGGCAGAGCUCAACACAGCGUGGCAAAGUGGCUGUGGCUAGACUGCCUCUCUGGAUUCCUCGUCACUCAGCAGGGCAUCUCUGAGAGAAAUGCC

variants of: B1; test: self-cleavage, relative activity (ratio to wild type); higher = more cleavage; in vitro, sequencing; the parent is a self-cleaving ribozyme

{"changes": "U46A A117G", "self-cleavage": 1.78}
{"changes": "A30U U143C", "self-cleavage": 0.77}
{"changes": "G122C U143C", "self-cleavage": 1.57}
{"changes": "U5A U39G", "self-cleavage": 0.22}
{"changes": "A64C A138G", "self-cleavage": 0.31}
{"changes": "A92G G122A", "self-cleavage": 0.13}
{"changes": "U29A A78U", "self-cleavage": 1.48}
{"changes": "A30U A129U", "self-cleavage": 1.38}
{"changes": "A117G G144A", "self-cleavage": 0.73}
{"changes": "U87A U100C", "self-cleavage": 0.09}
{"changes": "U119A A138G", "self-cleavage": 2.02}
{"changes": "U115C U132C", "self-cleavage": 1.84}
{"changes": "C18U A30U", "self-cleavage": 0.14}
{"changes": "A78U U87C", "self-cleavage": 0.84}
{"changes": "G32A U85C", "self-cleavage": 0.16}
{"changes": "G44A C113U", "self-cleavage": 1.8}
{"changes": "A2U A79U", "self-cleavage": 1.37}
{"changes": "U23C A94U", "self-cleavage": 0.48}
{"changes": "U15C A42U", "self-cleavage": 1.38}
{"changes": "U52C A138U", "self-cleavage": 1.5}
{"changes": "U26A A65U", "self-cleavage": 0.14}
{"changes": "U85A U132A", "self-cleavage": 0.08}
{"changes": "U91A U143A", "self-cleavage": 0.52}
{"changes": "U100C U143G", "self-cleavage": 2.85}
{"changes": "U9C U47C", "self-cleavage": 1.45}
{"changes": "A94G G105U", "self-cleavage": 0.2}
{"changes": "A24U U132C", "self-cleavage": 1.07}
{"changes": "U115C G144C", "self-cleavage": 2.13}
{"changes": "G88A U91C", "self-cleavage": 0.05}
{"changes": "U13A A43G", "self-cleavage": 0.96}
{"changes": "U109G A140G", "self-cleavage": 0.21}
{"changes": "U39A A78U", "self-cleavage": 1.98}
{"changes": "A42G A59G", "self-cleavage": 0.11}
{"changes": "U47C U104G", "self-cleavage": 1.2}
{"changes": "U26C U52A", "self-cleavage": 1.53}
{"changes": "U100C U132A", "self-cleavage": 2.37}
{"changes": "U87A U119C", "self-cleavage": 0.07}
{"changes": "A78U U100A", "self-cleavage": 1.13}
{"changes": "A69G A77C", "self-cleavage": 0.61}
{"changes": "G4A U52C", "self-cleavage": 0.88}
{"changes": "C19U A78C", "self-cleavage": 1.71}
{"changes": "A77G A124G", "self-cleavage": 1.9}
{"changes": "A117U A141G", "self-cleavage": 1.1}
{"changes": "A30G", "self-cleavage": 1.09}
{"changes": "U62A C110U", "self-cleavage": 0.08}
{"changes": "U15G U96A", "self-cleavage": 0.16}
